- Test system: pMEK
- assayName: pMEK AlphaLISA (MEK1 pS218/222), HCT116 cells, EGF stimulated
- Assay type: cell-based
- conditionSummary: Homo sapiens, HCT-116, 2 h compound, EGF 30 ng/ml 15 min
- Method: Determination of pMEK IC50s A549 cells were cultured in F12K/10% FBS media (ATCC CAT #21127022) and were seeded at 10000 cells/well and HCT116 cells were cultured in McCoy's 5A/10% FBS media (Gibco Cat #30-2007) were seeded at 15000 cells/well in 384 microplates (Corning CAT #3765). […] The percent (%) inhibition at each concentration of compound is calculated based on and relative to the AlphaLISA signal in the HPE and ZPE control wells contained within each assay plate. […]
valueType: IC50

>>> result("CNS(=O)(=O)Nc1nccc(Cc2cncc(Oc3ncc(Cl)cc3F)c2C)c1F")
"10 to 100 nM"
>>> result("CNS(=O)(=O)Nc1nccc(Cc2cncc(Nc3ccc(Cl)cc3F)c2OC)c1F")
"< 10 nM"
>>> result("CNS(=O)(=O)Nc1nccc(Cc2cncc(Oc3ccc(Cl)cn3)c2C)c1F")
"< 10 nM"
>>> result("CNC(=O)Nc1nccc(Cc2cncc(Nc3ccc(Br)cc3F)c2C)c1F")
"< 10 nM"
>>> result("C=CCOc1cncc(Cc2ccnc(NS(=O)(=O)NC)c2F)c1C")
"10 to 100 nM"

###

Some molecules, each annotated with its measured IC50.
- Tested on: pMEK
- assayName: pMEK AlphaLISA (MEK1 pS218/222), HCT116 cells, EGF stimulated
- Type: cell-based
- conditionSummary: Homo sapiens, HCT-116, 2 h compound, EGF 30 ng/ml 15 min
- Protocol: Determination of pMEK IC50s A549 cells were cultured in F12K/10% FBS media (ATCC CAT #21127022) and were seeded at 10000 cells/well and HCT116 cells were cultured in McCoy's 5A/10% FBS media (Gibco Cat #30-2007) were seeded at 15000 cells/well in 384 microplates (Corning CAT #3765). […] The percent (%) inhibition at each concentration of compound is calculated based on and relative to the AlphaLISA signal in the HPE and ZPE control wells contained within each assay plate. […]
valueType: IC50

>>> result("Cc1c(Cc2ccnc(S(C)(=O)=O)c2F)cncc1Nc1ccc(Br)cc1F")
"10 to 100 nM"
>>> result("CNS(=O)(=O)Nc1nccc(Cc2cncc(Nc3ccc(Cl)cc3F)c2C(F)(F)F)c1F")
"< 10 nM"
>>> result("CNS(=O)(=O)Nc1nccc(Cc2cncc(Nc3ccc(Cl)cc3F)c2C)c1F")
"< 10 nM"
>>> result("CNS(=O)(=O)Nc1nccc(Oc2cncc(Nc3ccc(Cl)cc3F)c2C)c1F")
"< 10 nM"
>>> result("CNS(=O)(=O)Nc1nccc(C(C)c2cncc(Nc3ccc(Cl)cc3F)c2C)c1F (stereo not drawn)")
"10 to 100 nM"
>>> result("CNS(=O)(=O)Nc1nccc(Cc2cncc(-c3ncccc3F)c2C)c1F")
"> 1000 nM"

###

- Tested on: pMEK
- assayName: pMEK AlphaLISA (MEK1 pS218/222), HCT116 cells, EGF stimulated
- Assay type: cell-based
- conditionSummary: Homo sapiens, HCT-116, 2 h compound, EGF 30 ng/ml 15 min
valueType: IC50

>>> result("Cc1c(Cc2ccnc(S(C)(=O)=O)c2F)cncc1Nc1ccc(Cl)cc1F [Example 28]")
"10 to 100 nM"
>>> result("CNS(=O)(=O)Nc1nccc(Cc2cncc(Nc3ccc(Br)cc3F)c2C)c1F [Example 1]")
"< 10 nM"
>>> result("CNS(=O)(=O)Nc1nccc(Cc2cncc(N(C)c3ccc(Cl)cc3F)c2C)c1F [Example 36]")
"< 10 nM"
>>> result("CNS(=O)(=O)Nc1nccc(Cc2cncc(Nc3ccc(F)cc3F)c2C)c1F [Example 7]")
"< 10 nM"
>>> result("CNS(=O)(=O)Nc1nccc(Cc2c[n+]([O-])cc(Nc3ccc(Cl)cc3F)c2C)c1F [Example 14]")
"< 10 nM"
>>> result("CNS(=O)(=O)Nc1nccc(Cc2cncc(-c3ncc(Cl)cc3F)c2C)c1F [Example 32]")
"> 1000 nM"
>>> result("CNS(=O)(=O)Nc1nccc(Cc2cncc(Nc3ccc(Cl)cc3OC)c2C)c1F [Example 35]")
"< 10 nM"
>>> result("CNS(=O)(=O)Nc1nccc(Cc2cncc(Nc3ccc(OC)cc3F)c2C)c1F [Example 23]")
"< 10 nM"
>>> result("COC(=O)Nc1nccc(Cc2cncc(Nc3ccc(Br)cc3F)c2C)c1F [Example 4]")
"10 to 100 nM"
>>> result("CNS(=O)(=O)Nc1nccc(Cc2cncc(Nc3ccc(Cl)cc3F)c2F)c1F [Example 26]")
"< 10 nM"
>>> result("CNS(=O)(=O)Nc1nccc(Cc2cncc(Nc3ccc(OC(F)(F)F)cc3F)c2C)c1F [Example 39]")
"< 10 nM"
